Ref: PubChem BioAssay (NCI)

# System: HS 578T breast
# assay: NCI-60 one-dose screen, 48 h (100 = growth as untreated, 0 = no growth, -100 = all killed)
# particulars: 10 µM
The panel holds about 83,000 compounds, 20% with a hit somewhere; the sample as a whole holds those more often.
What growth was measured for each of the following?
Please give a number only; it is taken to be in %.

Ask: Please report the measured growth for "N#Cc1ccc(NC(=O)CSc2ccc(-c3ccc(Br)cc3)nn2)cc1"
Reply: 72.9

Ask: Give the reported value of growth for this record: "O=C(Cn1cc(CSc2nnc3oc4ccccc4n23)nn1)Nc1cccc(Cl)c1"
Reply: 66.6

Ask: Entry "CN1CCN(c2ccc(Nc3nc(NCCCNC(=O)C4CCCCC4)c4sccc4n3)cc2)CC1" needs its growth filled in; supply it.
Reply: 42.9

Ask: Return growth for the following compound: "COC(=O)C[C@](O)(CCCC(C)(C)O)C(=O)O[C@H]1C(OC)=C[C@@]23CCC(=O)N2CCc2cc4c(cc2[C@@H]13)OCO4"
Reply: 87.9

Ask: Tell me measured growth for "Nc1cc(-c2cccc(C(=O)NCc3ccc4c(c3)OCO4)c2)ccn1" please.
Reply: 94.4

Ask: Query growth for "COc1ccc2[nH]c(O)c(N=NC(=O)c3cc(-c4ccc(C)cc4)nc4ccccc34)c2c1"
Reply: 91

Ask: Retrieve growth measured for "Cc1ccc(CSc2nc(Cl)c(C#N)c(-c3ccc(F)cc3)n2)cc1" and print it.
Reply: 86.7

Ask: Return reported growth. Input compound: "COc1ccc(N(C)c2cc(C#N)nc3ccccc23)cc1N"
Reply: 36.9

Ask: State, in one line, measured growth of "O=C(N/N=C/c1ccc(B(O)O)o1)c1[nH]c2ccc(Br)cc2c1-c1ccccc1"
Reply: 0.269

Ask: Find the measured growth of "O=C1Nc2ccc(Cl)cc2/C1=C/c1cccc(OCc2ccccn2)c1" and report it.
Reply: -1.17

Ask: For "O=C(Nc1cccc(-c2cn(-c3ccc4oc(=O)ccc4c3)nn2)c1)Nc1cc(C(F)(F)F)cc(C(F)(F)F)c1" , write its growth.
Reply: 27.7

Ask: Provide growth value for the following compound: "Cc1cc2nc3c4ccccc4n(CCO)c3nc2cc1C"
Reply: 48.3

Ask: Specify growth for "CN(C(=O)c1ccc(C(C)(C)C)cc1)c1sc2c(c1C#N)CCC(=O)C2" and stop.
Reply: 11.8

Ask: For the compound "COc1ccc(-c2ccc(/C=N/NC(=O)c3[nH]c4ccc(Br)cc4c3-c3ccccc3)o2)cc1" , give its reported growth.
Reply: 28.5

Ask: Return the recorded growth value; entry: "COc1ccc(-c2ccc(/C=N/NC(=O)c3[nH]c4ccc(Br)cc4c3-c3ccccc3)s2)cc1"
Reply: 54

Ask: Item "O=S(=O)(Nc1ncccn1)c1ccc(-n2c(-c3ccccc3)nc(-c3ccccc3)c2-c2ccccc2)cc1" : provide growth
Reply: 81

Ask: Consider the compound "Cc1ccc(C(=O)NCCCNc2nc(Nc3ccc(N4CCN(C)CC4)cc3)nc3ccsc23)cc1" . State its measured growth.
Reply: 66.9

Ask: Supply reported growth belonging to this compound: "CCN1CCN(c2ccc(NC(=O)Nc3ccc4c(c3F)CCN4c3ccnc(C(=O)NC)c3)cc2C(F)(F)F)CC1"
Reply: 68.3

Ask: Tell us which growth value is on record for "CC(C)Sc1nc(NC2CC2)c(C#N)c(-c2ccccc2)n1"
Reply: 71.7

Ask: Return reported growth. Input compound: "CC(C)NC(=O)c1cc(-c2ccc(NC(=O)Nc3ccc(N4CCN(C)CC4)c(C(F)(F)F)c3)cc2)nc2cccnc12"
Reply: -42.1

Ask: Entry CCOC(=O)C(Cc1ccccc1)N1C(=O)/C(=C/N2N=C(c3ccc(OC)cc3)CC2c2ccc3ccccc3c2)SC1=S (configuration not stated) needs its growth filled in; supply it.
Reply: 1.03

Ask: Fill in reported growth for this entry: "CC1=C2C(=C[C@@](C)(CO)[C@@H]2O)/C(=N\N)[C@](C)(O)C12CC2"
Reply: -12.5

Ask: For the compound "N#Cc1c(-c2ccc(Cl)cc2)cc(-c2ccccc2)nc1OCc1ccccc1" , give its measured growth value.
Reply: 85.2

Ask: Please look at this compound and report its growth: "Cc1cc(C)cc(Oc2cccc(-c3c(C)nnn3C3CCN(CCN(C)C)CC3)n2)c1"
Reply: 5.31

Ask: Indicate its recorded growth; the compound in question is "COc1cccc(-c2ccc(/C=N/NC(=O)c3[nH]c4ccc(Br)cc4c3-c3ccccc3)o2)c1"
Reply: -1.37

Ask: Let me know recorded growth for "O=C1Nc2ccc(Cl)cc2/C1=C/c1cccc(OCc2ccccc2)c1" , thanks.
Reply: 6.44

Ask: Give the measured growth for "C=C(C)[C@@H]1CC[C@]2(COP(=O)(OCC)OCC)CC[C@]3(C)[C@H](CC[C@@H]4[C@@](C)(CCCN)[C@H](C(=C)C)CC[C@]43C)[C@@H]12"
Reply: 31.3

Ask: Please report growth for the following compound: "Cc1cccc(-c2nc(Nc3ccccc3C(=O)O)c3ccccc3n2)c1"
Reply: 16.6

Ask: Hello, please tell me recorded growth for this one: "O=C(Nc1ccccc1)Nc1nc2ccccc2s1"
Reply: 86.9

Ask: Answer with reported growth of "O=C(/C=C/Nc1ccccc1)c1ccc2c(c1)Nc1ccccc1S2"
Reply: 63

Ask: Using known records, supply growth for "O=c1[nH]c2ccccc2cc1CSc1ccc(Nc2nccc(-c3ccc(C(F)(F)F)cc3)n2)cc1"
Reply: -8.2

Ask: Specify reported growth for the compound shown: "O=C(NCCCCCCCCCC[P+](c1ccccc1)(c1ccccc1)c1ccccc1)c1ccc(-n2nc(-c3ccccc3O)nc2-c2ccccc2O)cc1"
Reply: -22.1

Ask: For the compound "CN1CCCN(Cc2ccc(C(=O)Nc3cccc(Nc4ccc5c(O)cccc5n4)c3)cc2C(F)(F)F)CC1" , report growth.
Reply: -41.2

Ask: For "O=C(N/N=C/c1ccc(-c2cccc([N+](=O)[O-])c2)o1)c1[nH]c2ccc(Br)cc2c1-c1ccccc1" , write its growth.
Reply: -2.96

Ask: For the compound "CCCCSc1nc(Nc2ccc(/C(C)=N/NC(N)=S)cc2)c(C#N)c(-c2ccc(F)cc2)n1" , report growth.
Reply: 28.8

Ask: Determine its reported growth: "COc1cc(-c2nc3cc(Cl)c(Cl)cc3[nH]2)ccc1OCc1nnc(-c2ccc(Br)cc2)o1"
Reply: -22.5

Ask: Kindly indicate its recorded growth. Item: COc1ccccc1[C@H]1C(C(=O)c2ccc(Cl)cc2)C2(N[C@@H]1c1ccccc1)C(=O)Nc1ccc(Cl)cc12 (some centres not stated)
Reply: -2.19
